# experimental_target: A*02:01 (human), P04439
# assay_procedure: ProImmune REVEAL MHC class I-peptide binding assay
property_label: REVEAL score at 0 h
I only need the number, thanks.

Completed entries (count: 10):
| binder | REVEAL score at 0 h |
| --- | --- |
| LMRRGDLPV (modifications not checked) | 82.3 |
| VVAAEMEEA (modifications not checked) | 92.2 |
| LMYFHRRDL (modifications not checked) | 97.8 |
| KLTYQNKVV (modifications not checked) | 92.3 |
| GEAAAIFMT (modifications not checked) | 74.3 |
| IVDLMCHAT (modifications not checked) | 62.7 |
| MGEAAAIFM (modifications not checked) | 50.6 |
| LMCHATFTM (modifications not checked) | 72.9 |
| GLYGNGVVT (modifications not checked) | 87.7 |
| MWHVTRGAV (modifications not checked) | 62.7 |

Moving on to the next binder.
Tell me the measured REVEAL score at 0 h of AISGDDCVV (modifications not checked) , please.
91.1
